// provenance: ChEMBL document CHEMBL3433997

Target: Glucose transporter (Leishmania mexicana)
Test: ST_JUDE_LEISH: Cytotoxicity at 2uM final concentration against transgenic Leishmania Mexicana promastigotes LmGT2 that are glucose transport deficient and complemented with the L. Mexicana glucose transporter 2. Activity is measured by DNA content using SYBR green in vitro
Format: functional
Reported inhibition is given for each of the following compounds.
Reply with just the number (in %).

[[record]]
compound = "CC1(CCCCN2CCC(c3c[nH]c4cnccc34)CC2)C(=O)Nc2cccc(Cl)c21 (centres undefined)"
quantity_measured = "inhibition"
value_measured = 1.21


Ask: Entry N#Cc1cccc(C(=O)N2CCOC(CCN3CCC(c4ccccc4)CC3)(c3ccc(Cl)c(Cl)c3)C2)c1 (centres undefined) : reported inhibition = ?
Result: 2.33

Ask: If you can, please state the reported inhibition value of "N=C(NC1CC1)c1ccc2[nH]c(CCCCCc3nc4cc(C(=N)NC5CC5)ccc4[nH]3)nc2c1" .
Result: 1.61

###

Reported inhibition values follow for various compounds
Target: Glucose transporter (Leishmania mexicana) (UniProt O61059)
Assay: ST_JUDE_LEISH: Cytotoxicity at 2uM final concentration against transgenic Leishmania Mexicana promastigotes LmGT2 that are glucose transport deficient and complemented with the L. Mexicana glucose transporter 2. Activity is measured by DNA content using SYBR green in vitro
Format: functional
Write the value in % as a bare number.

Consider the worked cases shown below.
[[record]]
compound = "COc1cccc2cc(C(=O)N[C@@H](CC(C)C)C(=O)NC3CC[C@@H](C)N(C(=O)Nc4ccncc4)CC3=O)oc12 (stereo not given in full)"
quantity_measured = "inhibition"
value_measured = 3.24

[[record]]
compound = "COc1ccc(-c2cc(C(F)(F)F)n3ncc(C(=O)Nc4cc(C)ccc4O)c3n2)cc1OC"
quantity_measured = "inhibition"
value_measured = 0.56

[[record]]
compound = "CN(C)c1ccc2nc(N)nc(N)c2c1Cl"
quantity_measured = "inhibition"
value_measured = 3.5


As a next step, examine the compound that follows.
Ask: Entry "c1cncc(CN2CCN(Cc3ccc(-c4ccc(-c5nc6ccccc6[nH]5)s4)cc3)CC2)c1" , system Glucose transporter (Leishmania mexicana) (UniProt O61059): what inhibition was measured?
Result: 1.44

###

Molecular target: Hexose transporter 1 (Plasmodium falciparum) (UniProt O97467)
Assay: ST_JUDE_LEISH: Cytotoxicity at 2uM final concentration against transgenic Leishmania Mexicana promastigotes LmPfHT that are glucose transport deficient and complemented with the Plasmodium falciparum hexose transporter. Activity is measured by DNA content using SYBR green in vitro
Assay type: functional
quantity measured: inhibition (%)
Report the figure in % without appending any unit label.

Worked cases, inhibition given:
[[record]]
molecule = "Cc1c(Cl)ccc2sc(N3CCN(C(=O)c4ccc([N+](=O)[O-])o4)CC3)nc12"
value_measured = 57.6

[[record]]
molecule = "CCCc1ccc(NC(=O)c2ccc(CN3CCCN(Cc4ccc(OC)cc4)CC3)cc2)cc1"
value_measured = -0.55

[[record]]
molecule = "CCNc1cc(C(=O)N[C@@H](Cc2cccc(Cl)c2)[C@H](O)CNC(C)CCCC(C)C)cc(N2CCCCS2(=O)=O)c1 (some centres undefined)"
value_measured = -1.5

[[record]]
molecule = "c1cc(-c2cc3ccc(C4=NCCN4)cc3[nH]2)ccc1C1=NCCN1"
value_measured = 2.57

[[record]]
molecule = "CN1CCC(C(=O)N(Cc2ccc(-c3ccc(CNCCc4ccc(S(C)(=O)=O)cc4)cn3)cc2)C2CCN(Cc3ccccc3)CC2)CC1"
value_measured = 2.62

[[record]]
molecule = "O=C(Nc1ccc(C(F)(F)F)cc1)c1ccc(S(=O)(=O)NCC2CCCN(CC3CCCCC3)C2)cc1 (centres undefined)"
value_measured = 2.24

[[record]]
molecule = "COc1ccc(CN2CCCN(Cc3cccc(NC(=O)c4ccc5ccccc5c4)c3)CC2)cc1"
value_measured = 1.71

[[record]]
molecule = "COc1ccc(-c2nc(NC(=O)CS(=O)(=O)c3ccc(F)cc3)sc2C)cc1"
value_measured = 4.52


Field: next molecule
Ask: State the recorded inhibition for this entry: "C=C(C)Cn1cc(C2CCN(CCN3CCC(CNC(=O)c4ccc(-c5ccc(C#N)cc5)cc4)CC3)CC2)c2ccccc21"
Result: 4.28

###

Molecular target: Solute carrier family 2, facilitated glucose transporter member 1 (Homo sapiens) (UniProt P11166)
Sequence (P11166 whole entry): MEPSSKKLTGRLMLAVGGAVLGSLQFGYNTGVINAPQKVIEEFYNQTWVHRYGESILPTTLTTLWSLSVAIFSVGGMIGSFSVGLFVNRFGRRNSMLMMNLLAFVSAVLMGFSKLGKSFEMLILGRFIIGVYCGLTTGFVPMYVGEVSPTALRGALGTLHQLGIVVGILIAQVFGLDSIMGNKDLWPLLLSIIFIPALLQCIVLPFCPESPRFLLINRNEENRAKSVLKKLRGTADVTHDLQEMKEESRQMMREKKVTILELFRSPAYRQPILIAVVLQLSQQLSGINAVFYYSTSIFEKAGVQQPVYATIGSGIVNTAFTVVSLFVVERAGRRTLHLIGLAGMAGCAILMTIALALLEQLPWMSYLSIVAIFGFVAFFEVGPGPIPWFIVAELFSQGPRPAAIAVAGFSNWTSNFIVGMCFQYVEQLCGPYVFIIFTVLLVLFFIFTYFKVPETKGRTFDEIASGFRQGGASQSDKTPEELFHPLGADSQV
Experiment: ST_JUDE_LEISH: Cytotoxicity at 2uM final concentration against transgenic Leishmania Mexicana promastigotes LmGLUT1 that are glucose transport deficient and complemented with the human glucose transporter GLUT1. Activity is measured by DNA content using SYBR green in vitro
Format: functional
quantity measured: inhibition (%)
# number only, unit % dropped from output

[[record]]
entry_smiles = "CC1(C)NC(N)=NC(=N)N1OCCOc1ccc2ccccc2c1"
value_measured = 0.95

[[record]]
entry_smiles = "CC(C)(C)OC(=O)NCc1ccc(Nc2nnc(-c3cccc(C(=O)NCc4cc(C(F)(F)F)cc(C(F)(F)F)c4)c3)o2)cc1"
value_measured = 7.94

[[record]]
entry_smiles = "CN(C)Cc1ccc(CN2CCN(CCOc3ccc(-c4ccc(Cl)cc4)cc3)CC2)o1"
value_measured = 22.7

[[record]]
entry_smiles = "O=[N+]([O-])c1ccc(C=NNc2nc(Nc3ccccc3)nc(Nc3ccccc3)n2)o1"
value_measured = 13.4


// next item, inhibition requested
Ask: I am curious: what inhibition value has been reported for "CCOc1cc(O)c(-c2nc(N)ncc2-c2ccc3c(c2)OCCO3)cc1CC" ?
Result: 9.25

###

Quick reference: inhibition of the listed items.
Molecular target: Solute carrier family 2, facilitated glucose transporter member 1 (Homo sapiens) (UniProt P11166)
Assay: ST_JUDE_LEISH: Cytotoxicity at 2uM final concentration against transgenic Leishmania Mexicana promastigotes LmGLUT1 that are glucose transport deficient and complemented with the human glucose transporter GLUT1. Activity is measured by DNA content using SYBR green in vitro
Assay type: functional
Use % as the unit, but write only the number.

Known results for compounds:
[[record]]
compound = "O=C(Nc1ccc(CN2CCOCC2)cc1)c1ccc(-c2ccc(Br)cc2)o1"
value_measured = 2.45

[[record]]
compound = "CN(C)Cc1ccc(-c2ccc3ccnc(N)c3c2)cc1"
value_measured = 3.2


Ask: // query inhibition value for entry "CC(C)NCc1cccc(-c2ccc(NC(=O)c3cccc(C#N)c3)cc2)c1"
Result: 0.25

Ask: I'd like to know its inhibition. The compound in question is "CCc1nc(N)nc(N)c1-c1ccc(C(C)C)cc1"
Result: 2.65

Ask: Which inhibition value is on record for "CS(=O)(=O)c1ccc(-c2cnc(N)c(-c3cccc(O)c3)c2)cc1" ?
Result: 6.6

Ask: // inhibition lookup, key: "CSC1=NC(=Nc2c(C)cccc2C)C2(CCCCC2)N1c1ccccc1Cl"
Result: -1.1

Ask: // returns reported inhibition for input "CCCCCc1cc(O)c2c(c1)OC(C)(C)C=C2C1=CCN(Cc2ccsc2)CC1"
Result: 2.33

Ask: Fill in the blank: the reported inhibition of "COc1ccc2nccc(N3CCC(CCNCc4ccc5c(n4)NC(=O)CS5)CC3)c2n1" is ____.
Result: 4.06

Ask: Query: inhibition; subject: "COc1cccc2cc(C(=O)N[C@@H](CC(C)C)C(=O)N[C@H](C=NN3CC(=O)NC3=O)CC(C)C)oc12"
Result: 2.8

Ask: Find the recorded inhibition belonging to "O=C(/C=C/c1ccc(F)c(Br)c1)NCCCCCN1CCC(c2c[nH]c3ccccc23)CC1" and report it.
Result: 1.88

Ask: # lookup: inhibition of "Nc1cccc(CNCc2ccc(-c3ccc(-c4nc5cc(F)ccc5[nH]4)s3)cc2)c1"
Result: -2.38

Ask: What measured inhibition goes with "CSc1nc2nc(C)c(Cc3cccc(C(F)(F)F)c3)c(C)n2n1" ?
Result: 0.17

Ask: Quick one: inhibition for "COc1ccc(-c2onc(C(F)(F)F)c2-c2ccc(Br)cc2)c(O)c1" ?
Result: 2.09

Ask: Form field: reported inhibition of "CN1CCN(Cc2ccc(-c3ccc4c(Nc5cc(O)c(F)cc5Cl)ccnc4c3)o2)CC1"
Result: 4.84

Ask: # input compound: "CN(C)Cc1c(O)ccc2oc(Cc3ccccc3)cc12" ; wanted: its inhibition
Result: -1.64

Ask: Request the reported inhibition associated with "CCN(CC)CCN(Cc1ccc(-c2ccc(C(F)(F)F)cc2)cc1)C(=O)Cn1c(CCc2cccc(F)c2F)nc(=O)c2ccccc21"
Result: 1.51

Ask: Endpoint output: inhibition of "O=c1nc(NCCCNCc2cc3c(Cl)cc(Cl)cc3[nH]2)[nH]c2ccsc12" . Value?
Result: 81.4

Ask: Item "COc1ccc(NC(=O)CCNc2cc(C)nc(NCCc3ccc(F)cc3)n2)cc1" has what recorded inhibition?
Result: -0.52

###

// values below are reported inhibition
Target: Solute carrier family 2, facilitated glucose transporter member 1 (Homo sapiens) (UniProt P11166)
Assay: ST_JUDE_LEISH: Cytotoxicity at 2uM final concentration against transgenic Leishmania Mexicana promastigotes LmGLUT1 that are glucose transport deficient and complemented with the human glucose transporter GLUT1. Activity is measured by DNA content using SYBR green in vitro
Format: functional
Give your result in % as a bare value.

Please review the following examples before continuing.
[[record]]
molecule = "Cc1cccc2nc(-c3cccc(-c4cccc(NC(=O)COc5ccccc5C(N)=O)c4)c3)[nH]c12"
value_measured = -0.32

[[record]]
molecule = "CCC(CC)CN1C(=O)C(c2ccccc2)(c2ccccc2)N=C1N"
value_measured = 6.55

[[record]]
molecule = "Fc1ccc2cc(C=Cc3ccncc3)[nH]c2c1"
value_measured = 2.24


Ask: What value of inhibition has been reported for the following molecule? CCOC(=O)c1c(NC(NC(=O)c2ccc(C(C)(C)C)cc2)C(Cl)(Cl)Cl)sc2c1CCCC2 (stereo not given)
Result: 10.5

Ask: // query inhibition value for entry "O=[N+]([O-])c1cc(/C=N/Nc2nc3nonc3nc2Nc2ccc(F)cc2)c(Cl)cc1Cl"
Result: -0.53

Ask: Item under review: "Cc1c(CN2CCCCC2)cccc1OCCCNc1nc(NCCc2ccc(O)cc2)nc(N2CCNCC2)n1" . Reported inhibition?
Result: 5.55

Ask: Quick one: inhibition of "CCCc1ccc(Nc2nc(C)cc(N(CC)CCCN3CCCCC3)n2)cc1" ?
Result: -3.11

Ask: Quick one: inhibition of "CC1(C)NC(N)=NC(=N)N1OCCc1cccc2ccccc12" ?
Result: 2.21

Ask: Fill in: inhibition of "CC(C)(c1ccccc1)c1ccc(O)c(CN2CCOCC2)c1" is ___
Result: -0.49

Ask: Please report the recorded inhibition for "O=C(Nc1cc(Cl)cc(Cl)c1)c1cnn(-c2ccc(F)cc2)c1C1CCNCC1" .
Result: -0.33
